Reported Corn plant response rating values are given for each entry in this list.
Test system: corn
Assay: Test B pre/postemergence corn
Type: in vivo, Zea mays
Details: Preemergence, Rate 500 g/ha; scale 0 to 10 (0 no effect, 10 complete control)

molecule	Corn plant response rating
CCN(Cc1ccccc1)C(=O)n1oc(=O)n(C(C)C)c1=O [Compound 166]	0
CC(C)N(C(=O)n1oc(=O)n(Cc2ccccc2)c1=O)c1ccc(Cl)cc1 [Compound 106]	0
Cc1nsc(C)c1-n1c(=O)on(C(=O)N(c2ccc(F)cc2F)C(C)C)c1=O [Compound 158]	2
Cc1ccccc1-n1c(=O)on(C(=O)N(c2c(F)cccc2F)C(C)C)c1=O [Compound 176]	0
